Target: T1, His/Avi-CynoIL18BP (recombinant cynomolgus IL-18BP with His and Avi tags) (cynomolgus monkey)
T1 chain: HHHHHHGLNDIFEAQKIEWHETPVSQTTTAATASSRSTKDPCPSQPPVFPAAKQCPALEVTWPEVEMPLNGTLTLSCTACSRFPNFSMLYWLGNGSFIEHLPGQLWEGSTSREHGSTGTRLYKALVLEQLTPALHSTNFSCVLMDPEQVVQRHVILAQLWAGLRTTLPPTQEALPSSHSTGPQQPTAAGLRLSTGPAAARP
Test: cell-based or functional assay
Readout label: % of Max Gamma, human NK cells (%)
Write the value in % as a bare number.

As a guide, the following entries are already answered.
[[record]]
binder = "anti-IL18BP antibody BP-15 (antibody, human IgG1, V domains shown) VH: QVQLVQSGAEVKKPGASVKVSCKASGYTFTTYDINWVRQAPGQGLEWMGIINPSGGSTSYAQKFQGRVTMTRDTSTSTVYMELSSLRSEDTAVYYCATGIGELDFDYWGQGTLVTVSS VL: DIQMTQSPSSLSASVGDRVTITCRASQSISSYLNWYQQKPGKAPKLLIYKASTLHNGVPSRFSGSGSGTDFTLTISNLQPEDFATYYCQQAISFPLTFGGGTKVEIK"
value_unit = "%"
measurement = 10

[[record]]
binder = "anti-IL18BP antibody BP-06 (antibody, human IgG1, V domains shown) VH: QIQLQQSGPELVKPGASVKISCKASGYTFTDYYLNWVKQTPGQGLEWIGWIYPGSGNTKYTEKFKDKASLTVDTSSNTAYMQLSSLTSDDTAVYFCARRGVAWFAYWGQGTLVTVSA VL: DIKMTQSPSSIYASLGERVTITCKASQDINSYLSWFQQKPGKSPKTLIHRANRLVDGVPSRFSGSGSGQDYSLTISSLEYEDMGIYYCLQHDDFPPTFGAGTNLELK"
value_unit = "%"
measurement = 75.8


State, in one line, measured % of Max Gamma, human NK cells of anti-IL18BP antibody BP-04 (antibody, V domains shown, also called BP-04 (hybridoma); BP-04 (parental)) VH: HVHLHQSGAELVRPGVSVKISCRGSGYTFTDYDVHWVKQSHAKSLEWIGVISTYYGDVGYNQEFKGKATMTLDKSSSTSYLELARLTSEDSAIYYCARSGTYYYGTRESHALDYWGQGTSVTVSS VL: DIQMTQSPASLSVSVGETVTITCRTSDNVYSNLAWYQQKQGKSPQLLVYGAINLADGVPSRFSGSGSDTQYSLKINNLQSEDFGSYYCQHFWGNPYTFGGGTKLEIK
25.9

Give % of Max Gamma, human NK cells for anti-IL18BP antibody BP-16 (antibody, human IgG1, V domains shown) VH: QVQLVQSGAEVKKPGASVKVSCKASGYTFTTYDINWVRQAPGQGLEWMGIIGSYGGATSYAQKFQGRVTMTRDTSTSTVYMELSSLRSEDTAVYYCATAEEELRFDYWGQGTLVTVSS VL: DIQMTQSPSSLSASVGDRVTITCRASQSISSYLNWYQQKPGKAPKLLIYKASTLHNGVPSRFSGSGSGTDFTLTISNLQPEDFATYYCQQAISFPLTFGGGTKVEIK
51.6

Check the records and state % of Max Gamma, human NK cells for anti-IL18BP antibody BP-08 (antibody, human IgG1, V domains shown) VH: QVQLQQPGAELVKPGASVKLSCKVSGYTFTSYWMHWVKQRPGQGLEWIGMIDPNSDSSRYNEKFKNRATLTADKSSSTAFMQFSSLTSEDSAVYYCARSRLGQDYWGQGTTLTVSS VL: DIVMTQSHKFMSTSVGDRVSITCKASQDVSTAVAWYQQKPGQSPKLLIYWASTRHTGVPDRFTGSESGTDYTLIISSVQAEDLALYYCQQHFSTPYTFGGGTKLEIK
58.4

These data points were gathered from patent US20250333523A1.
